Test system: NMDA receptor
Format: binding
Where no end group is shown, it is not given here.

{"columns": ["substance", "IC50"],
 "data": [
  ["(A^7,10,14)4-17: A^7,10,14 Con G with residues 1-3 deleted (ELQANQALIRAKSN; ends and bridges not checked; UniProt P07231 81-97, looked up, variant E7A E10A E14A del1-3)", "inactive"],
  ["(A^7,10,14)3-17: A^7,10,14 Con G with residues 1-2 deleted (EELQANQALIRAKSN; ends and bridges not checked; UniProt P07231 81-97, looked up, variant E7A E10A E14A del1-2)", "inactive"],
  ["(A^7,10,14)2-17: A^7,10,14 Con G with residue 1 deleted (EEELQANQALIRAKSN; ends and bridges not checked; UniProt P07231 81-97, looked up, variant E7A E10A E14A G1*)", "inactive"]
]}

---

Tested on: NMDA receptor
Type: binding
Where no end group is shown, it is not given here.

{"columns": ["substance", "IC50"],
 "data": [
  ["(A^7,10,14)6-17: A^7,10,14 Con G with residues 1-5 deleted (QANQALIRAKSN; ends and bridges not checked; UniProt P07231 81-97, looked up, variant E7A E10A E14A del1-5)", "inactive"],
  ["(A^7,10,14)5-17: A^7,10,14 Con G with residues 1-4 deleted (LQANQALIRAKSN; ends and bridges not checked; UniProt P07231 81-97, looked up, variant E7A E10A E14A del1-4)", "inactive"]
]}
